- assay procedure: Primary qHTS for delayed death inhibitors of the malarial parasite plastid, 96 hour incubation
- test settings: P. falciparum luciferase reporter growth; series mostly up to 28.7 µM
Among all 320,000 compounds or so, about 22,000 (6.9%) were called active. Not shown: some 27% with an inconclusive outcome. The call rests on the fitted dose curve; in most records, active means well fitted inhibition curve with a large enough effect; inconclusive means small, poorly fitted or top-dose-only effect, or another doubt; inactive means no such curve, though single readings can be large or run the other way. This excerpt belongs to a sample that is enriched for actives.
Outcome codes: true (active), false (inactive)

| compound | class name |
| --- | --- |
| Cc1ccn(CCC(=O)N2c3ccccc3CC2C)n1 (stereo not drawn) | false |
| CCn1c(SCC(=O)Nc2ccc(OC)c(OC)c2)nnc1-c1c[nH]c2ccccc12 | true |
| Cc1c([N+](=O)[O-])c(N)nn1C | false |
| Cc1cc(F)ccc1N1CCC(N2CCN(C)C(CCO)C2)CC1 (stereo not drawn) | false |
| CCO[C@@H]1OC(C(=O)N2CCOCC2)=C[C@H](C)[C@H]1CCCO | false |
| CCO[C@H]1OC(C(=O)O)=C[C@@H](C2CCCCC2)[C@@H]1CCCO | false |
| C/C(=N\OCC(=O)O)c1ccc(Cl)cc1 | false |
| Cc1cccn2c(=O)c3cc(C(=O)NC4CCCCC4)sc3nc12 | false |
| CCO[C@@H]1OC(C(N)=O)=C[C@H](c2ccc(Br)cc2)[C@H]1CCCO | false |
| CCO[C@H]1OC(C(=O)N2CCOCC2)=C[C@@H](c2ccc3c(c2)OCO3)[C@@H]1CCCO | false |
| CCn1c(SCC(=O)NC2CC2)nnc1-c1ccccc1OC | false |
| CCCCN(C)CCCNC(=O)c1cc(-c2cccs2)nc2ccccc12 | false |
| Nc1c(Cl)cc(S(N)(=O)=O)cc1S(N)(=O)=O | false |

----------
- assay procedure: Primary qHTS for delayed death inhibitors of the malarial parasite plastid, 96 hour incubation
- test settings: P. falciparum luciferase reporter growth; series mostly up to 28.7 µM
The campaign covered roughly 320,000 compounds. About 22,000 (6.9%) were called active. Another 27% or so got no clear call; they are omitted. Calls follow the shape of the dose curve; as a rule, active = well fitted inhibition curve with a large enough effect; inconclusive = small, poorly fitted or top-dose-only effect, or another doubt; inactive = no such curve, though single readings can be large or run the other way. The list comes from a sample in which actives are over-represented; it also holds close analogues and randomly drawn compounds.
Outcome codes: true (1) (active), false (0) (inactive)

| compound | class name |
| --- | --- |
| CCOc1ccc(C(=O)Nc2c3c(nn2-c2ccccc2)CS(=O)(=O)C3)cc1 | false (0) |
| NC(=O)CSc1nnc(NC(=O)c2ccc(Br)o2)s1 | false (0) |
| CCOC(=O)C1CCN(S(=O)(=O)c2ccc3c(c2)N(C)C(=O)CC(=O)N3C)CC1 | false (0) |
| CC(=O)Nc1cccc(C(=O)OCC(=O)Nc2nnc(-c3ccccc3)o2)c1 | false (0) |
| Oc1ccc(N=Cc2c(O)ccc3ccccc23)cc1 | true (1) |
| Cc1cc(N=Nc2ccc3ccccc3c2)ccc1O | false (0) |
| COC(=O)c1c(NC(=O)C(=O)N2CCCCC2)sc2c1CC(C)(C)OC2 | false (0) |
| COc1ccc(C(=O)NCC2CCCCC2)cc1S(=O)(=O)N1CCCC1 | false (0) |
| O=[N+]([O-])c1ccc(N=Cc2c(O)ccc3ccccc23)cc1 | false (0) |
| Cc1cc(C)c(C2C3=C(Nc4c2c(C)nn4-c2ccccn2)c2ccccc2C3=O)c(C)c1 (stereo not given) | true (1) |
| CC(NC(=O)c1ccccc1F)c1cccc2ccccc12 (stereo not given) | false (0) |
| CCCCCOC(=O)NCCOC(=O)Nc1ccc(C(=O)OCC)cc1 | true (1) |
| CCc1noc(C)c1C(=O)Nc1nc(-c2ccccc2)cs1 | false (0) |
| CCOC(=O)Cn1c(=O)n(Cc2ccc(OC)cc2)c(=O)c2cccnc21 | false (0) |
| CC(C)Cc1nc(Cl)c(C#N)c2c1CCC2 | false (0) |
| CN(c1ccccc1)S(=O)(=O)c1ccc(C(=O)NCCc2ccccc2)cc1 | false (0) |
| Cc1nc(SCC(=O)N2CCc3ccccc3C2)c2c(C)c(C)sc2n1 | false (0) |
| O=C(Nc1cc(S(=O)(=O)N2CCOCC2)ccc1OCC(F)(F)F)c1ccc(N2CCCC2=O)cc1 | false (0) |
| O=C(COC(=O)Cc1ccccc1F)NCCc1ccccc1 | false (0) |
| Cc1cc(C(C)(C)C)cc(S(=O)(=O)Nc2ccc(C(=O)O)cc2)c1C | false (0) |
